Below, each entry is listed alongside its reported X geometric mean.
Biological target: T1, human Claudin 3 (human, UniProt O15551 1-220)
T1 construct: forced expression in DG44 or Ba/F3 cells, or endogenous on MCF7 cells; four-transmembrane tight junction protein; also called hCLDN3; hCLN3
T1 sequence: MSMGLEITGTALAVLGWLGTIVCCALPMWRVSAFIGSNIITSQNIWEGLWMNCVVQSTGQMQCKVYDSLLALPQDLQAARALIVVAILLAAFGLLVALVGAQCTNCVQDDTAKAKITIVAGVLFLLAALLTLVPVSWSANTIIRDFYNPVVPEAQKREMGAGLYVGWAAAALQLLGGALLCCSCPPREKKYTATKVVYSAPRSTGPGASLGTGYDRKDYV
Experiment: flow cytometry, hCLDN3/DG44 cells, 0.1 ug/mL antibody
Field format: numeric only.

INSERT INTO assay_data (binder, observed) VALUES
  ('CDN27 (antibody, V domains shown, mouse monoclonal, IgG2a/IgK) VH: EVQLQQSGPELVKPGASVKISCKASGYSFTGYFMNWVKQSHGKSLEWIGRINPYNGDTFYNQKFKGKATLTVDKSSSTAHMELRSLTSEDSAVYYCARSGDWYFDVWGAGTTVTVSS VL: DIVLTQSPASLAVSLGQRATISCRASKSVSTSSYSYMHWYQQKPGQPPKLLIKFASYLESGVPARFSGSGSGTDFTLNIHPVEEEDAATYYCQHSREFPRTFGGGTKLEIKR', 308),
  ('CDN16 (antibody, mouse IgG2b, kappa, V domains shown, mouse monoclonal, IgG2b/IgK) VH: EVQLQQSGPELVKPGASVKMSCKASGYTFTDYYMNWVKQSHGKSLEWIGRVNPSNGGTSYNQKFKGKATLTVDKSLSTAYMQLNSLTSEDSAVYYCARGLAYYSNSFVYWGQGTLVTVSA VL: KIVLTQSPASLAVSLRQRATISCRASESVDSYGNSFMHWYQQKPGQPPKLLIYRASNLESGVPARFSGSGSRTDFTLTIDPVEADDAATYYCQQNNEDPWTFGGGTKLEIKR', 125);

Consider the record given below.
Problem: Identify measured X geometric mean associated with CDN28 (antibody, mouse IgG1, kappa, V domains shown, mouse monoclonal, IgG1/IgK) VH: EVQLQQSGPELVKPGASVKISCKASGYSFTGYFMNWVKQSHGKSLEWLGRINPYNGDTFYNQKFKGKATLTVDKSSNTAHMELRSLTSEDSAVYYCARGDGYYVTSLAYWGQGTLVTVSA VL: NIVMTQSPKSMSMSVGERVTLSCKASENVVSYVSWFQQKPEQSPKLLIYGASNRYTGVPDRFTGSGSATDFTLTISSVQAEDLADYYCGQSYSYPLTFGAGTKLELKR
Solution: 275
